Provide the reported screen value of each item.
B1: AMOTL2 peptide 66-81 (Angiomotin-like protein 2), 16-mer library wild type / TNKS ANK (TNKS 12 ANK repeats, residues 174-649) (parent)
chain 1: LQQATRQEPQGQEHQG
chain 2: TGVPAVSGALRELLEACRNGDVSRVKRLVDAANVNAKDMAGRKSSPLHFAAGFGRKDVVEHLLQMGANVHARDDGGLIPLHNACSFGHAEVVSLLLCQGADPNARDNWNYTPLHEAAIKGKIDVCIVLLQHGADPNIRNTDGKSALDLADPSAKAVLTGEYKKDELLEAARSGNEEKLMALLTPLNVNCHASDGRKSTPLHLAAGYNRVRIVQLLLQHGADVHAKDKGGLVPLHNACSYGHYEVTELLLKHGACVNAMDLWQFTPLHEAASKNRVEVCSLLLSHGADPTLVNCHGKSAVDMAPTPELRERLTYEFKGHSLLQAAREADLAKVKKTLALEIINFKQPQSHETALHCAVASLHPKRKQVTELLLRKGANVNEKNKDFMTPLHVAAERAHNDVMEVLHKHGAKMNALDTLGQTALHRAALAGHLQTCRLLLSYGSDPSIISLQGFTAAQMGNEAVQQILSESTPIRTSD

Variants of: B1
test.name: proteomic peptide phage display deep mutational scan (ProP-PD DMS): M13 P8 16-mer library selected against immobilised GST-tagged bait for four days (rounds), NGS of the eluted pools per day and pseudo-replica
conditions: with TNKS ANK (TNKS 12 ANK repeats, residues 174-649); bait immobilised on MaxiSorp plates (10 µg), library pre-cleared on GST, 2 h binding at 4 °C, five washes; one round per day, days 1-4; value from days 2 and 3; keep out of graded; scale: average fractional NGS count over selection days 2 and 3
Give only the figure.

Tell me screen value reported for chain 1 Q10R
3.15e-05

Answer with the recorded screen value for the variant listed here: chain 1 Q12N
2.19e-05

# return recorded screen value for input chain 1 Q2R
0

State its screen value: chain 1 T5P
5.25e-05

Hello, please tell me recorded screen value for this one: chain 1 Q12T
9.71e-05

Quick one: give measured screen value for chain 1 Q12K
5.3e-05

Give the reported value of screen value for this record: chain 1 Q3R
0

For the variant chain 1 P9L , give its measured screen value value.
0

Name the recorded screen value of the variant listed here: chain 1 R6E
0

Let me know recorded screen value for chain 1 R6K , thanks.
0

Give recorded screen value. chain 1 Q7S
0.000105

Fill in reported screen value for this entry: chain 1 Q7I
0.0001

Supply reported screen value belonging to this variant: chain 1 E13D
6.42e-05

Let me know recorded screen value for chain 1 E13G , thanks.
5.19e-05

Please report the measured screen value for chain 1 Q7R
0

Note screen value for the variant shown: chain 1 T5A
2.97e-05

Answer with the recorded screen value for the variant listed here: chain 1 P9V
9.22e-05

For the variant chain 1 E13R , give its reported screen value.
0

Report screen value, nothing else, for this variant: chain 1 T5R
0

Provide screen value value for the following variant: chain 1 Q7D
2.19e-05

Read off the recorded screen value for chain 1 Q3I
0.000108

Quote screen value reported for chain 1 E13W please.
1.87e-05

Given the variant chain 1 H14D , write its reported screen value.
0

Tell me its screen value given chain 1 G11N as the entry.
5.06e-05

Consider the variant chain 1 E13F . State its measured screen value.
1.87e-05

Dear colleague, please send me the reported screen value for chain 1 T5K when you can.
6.67e-05

State, in one line, measured screen value of chain 1 P9G
0

Output screen value of chain 1 H14Y
8.4e-05

Identify measured screen value associated with chain 1 P9I
6.68e-05
